# Test system: AM14 RF+ B cells
# PROTOCOL DETAILS: RF+ B cell proliferation (3[H]-thymidine incorporation)
# Type: cell-based, mouse
# EXPERIMENTAL CONDITIONS: FIGS. 5A-5C
EXPERIMENTAL ENDPOINT: Inhibition of RF+ B cell response to mAb PL2-3 / chromatin-containing IC

MOLECULE: C/C=C/[C@H]1O[C@@](O)([C@@H](C)[C@H](O)[C@H](C)[C@H]2OC(=O)/C(OC)=C/C(C)=C/[C@@H](C)[C@@H](O)[C@@H](C)[C@@H](O)[C@H](C)C/C(C)=C/C=C/[C@@H]2OC)C[C@@H](O[C@H]2C[C@@H](O)[C@H](OC(N)=O)[C@@H](C)O2)[C@@H]1C [concanamycin B]
ENDPOINT VALUE: inhibited
//
MOLECULE: Cl.N [ammonium chloride]
ENDPOINT VALUE: inhibited
//
MOLECULE: CO/C1=C\C(C)=C\[C@@H](C)[C@@H](O)[C@@H](C)C/C(C)=C/C=C/[C@H](OC)[C@@H]([C@@H](C)[C@@H](O)[C@H](C)[C@@]2(O)C[C@@H](O)[C@H](C)[C@@H](C(C)C)O2)OC1=O [bafilomycin A]
ENDPOINT VALUE: inhibited
